STUDY_SYSTEM: Matrix protein VP40 (Lake Victoria marburgvirus (strain Ravn-87) (MARV) (Marburg virus (strainKenya/Ravn/1987)))
ASSAY_OVERVIEW: Inhibition of Marburg virus VP40 PPxY L-domain motif expressed in HEK293T cells assessed as reduction in VLP budding at 0.03 uM relative to control
Assay type: cell-based
CONDITIONS_USED: HEK-293T
Calls of active or inactive are those of the source. No cut-off for these calls is given here.
METRIC_NAME: inhibition

Here are 6 compounds together with their reported answers.
Cc1cccc(NC(=O)NC(=O)CSc2nc3ccccc3nc2C)c1C :: 41%
COc1ccc(NC(=O)NC(=O)CSc2nc3ccccc3nc2C)cc1 :: 25%
CCc1ccc(C)nc1NC(=O)NC(=O)CSc1nc2ccccc2nc1C :: 48%
Cc1ccc(NC(=O)NC(=O)CSc2nc3ccccc3nc2C)cc1C :: 29%
Cc1nc2ccccc2nc1SCC(=O)NC(=O)Nc1ccccc1F :: inactive
Cc1ccc(C)c(NC(=O)NC(=O)CSc2nc3ccccc3nc2C)c1 :: 68%

inhibition for Cc1cccc(NC(=O)NC(=O)CSc2nc3ccccc3nc2C)c1 ? inactive

inhibition for COc1ccccc1NC(=O)NC(=O)CSc1nc2ccccc2nc1C ? inactive

inhibition for Cc1nc2ccccc2nc1SCC(=O)NC(=O)Nc1cc(Cl)ccc1Cl ? 37%

inhibition for Cc1ccccc1NC(=O)NC(=O)CSc1nc2ccccc2nc1C ? 83%

inhibition for Cc1ccc(NC(=O)NC(=O)CSc2nc3ccccc3nc2C)c(C)c1 ? 62%

###

ASSAY_OVERVIEW: Cytotoxicity against African green monkey Vero E6 cells assessed as cell viability at 10 uM after 24 hrs by MTT assay relative to control
Format: cell-based
CONDITIONS_USED: chlorocebus sabaeus, read-out: Activity
METRIC_NAME: viability at 24 h, 10 µM (%)
Give the number; % is assumed, so skip it.

Cc1ccc(NC(=O)NC(=O)CSc2nc3ccccc3nc2C)cc1 :: 69.8
Cc1nc2ccccc2nc1SCC(=O)NC(=O)Nc1ccccc1Cl :: 80.9
Cc1nc2ccccc2nc1SCC(=O)NC(=O)Nc1cccc(F)c1C :: 84

viability at 24 h, 10 µM for Cc1ccccc1NC(=O)NC(=O)CSc1nc2ccccc2nc1C ? 61.7

###

STUDY_SYSTEM: Matrix protein VP40 (Lake Victoria marburgvirus (strain Ravn-87) (MARV) (Marburg virus (strainKenya/Ravn/1987)))
ASSAY_OVERVIEW: Inhibition of Marburg virus VP40 PPxY L-domain motif expressed in HEK293T cells assessed as reduction in VLP budding at 1 uM relative to control
Type: cell-based
CONDITIONS_USED: HEK-293T
Active and inactive are the calls of the source. No cut-off for these calls is given here.
METRIC_NAME: inhibition

Here are 5 compounds together with their reported answers.
COc1cccc(NC(=O)NC(=O)CSc2nc3ccccc3nc2C)c1 :: 100%
Cc1nc2ccccc2nc1SCC(=O)NC(=O)N(C)c1ccccc1 :: inactive
COc1ccccc1NC(=O)NC(=O)CSc1nc2ccccc2nc1C :: 96%
Cc1ccccc1NC(=O)NC(=O)COc1nc2ccccc2nc1C :: 100%
Cc1nc2ccccc2nc1SCC(=O)NC(=O)Nc1ccc(F)cc1 :: 80%

inhibition for Cc1nc2ccccc2nc1SCC(=O)NC(=O)Nc1cccc(F)c1 ? 41%

inhibition for Cc1nc2ccccc2nc1SCC(=O)NC(=O)N1CCc2ccccc21 ? inactive

inhibition for O=C(CSc1cnc2ccccc2n1)NC(=O)Nc1ccccc1F ? inactive

inhibition for Cc1nc2ccccc2nc1SCC(=O)NC(=O)Nc1cccnc1 ? 78%

inhibition for CCNC(=O)NC(=O)CSc1nc2ccccc2nc1C ? inactive

inhibition for Cc1nc2ccccc2nc1SCC(=O)NC(=O)Nc1ccccc1C#N ? 87%

inhibition for Cc1nc2ccccc2nc1SCC(=O)NC(=O)Nc1ccccc1 ? 88%

###

ASSAY_OVERVIEW: Cytotoxicity against human HEK293T cells assessed as cell viability at 10 uM after 24 hrs by MTT assay relative to control
Type: cell-based, HEK-293T
CONDITIONS_USED: read-out: Activity
Collected viability at 24 h, 10 µM values appear next to each entry.
Give the number; % is assumed, so skip it.

Cc1ccccc1NC(=O)NC(=O)CSc1nc2ccccc2nc1C :: 60.5
Cc1nc2ccccc2nc1SCC(=O)NC(=O)Nc1ccccc1Cl :: 65.4
Cc1nc2ccccc2nc1SCC(=O)NC(=O)Nc1cccc(F)c1C :: 63.5

Now examine the next entry.
viability at 24 h, 10 µM for Cc1ccc(NC(=O)NC(=O)CSc2nc3ccccc3nc2C)cc1 ? 52.8

###

STUDY_SYSTEM: Matrix protein VP40 (Lake Victoria marburgvirus (strain Ravn-87) (MARV) (Marburg virus (strainKenya/Ravn/1987)))
Sequence (whole entry): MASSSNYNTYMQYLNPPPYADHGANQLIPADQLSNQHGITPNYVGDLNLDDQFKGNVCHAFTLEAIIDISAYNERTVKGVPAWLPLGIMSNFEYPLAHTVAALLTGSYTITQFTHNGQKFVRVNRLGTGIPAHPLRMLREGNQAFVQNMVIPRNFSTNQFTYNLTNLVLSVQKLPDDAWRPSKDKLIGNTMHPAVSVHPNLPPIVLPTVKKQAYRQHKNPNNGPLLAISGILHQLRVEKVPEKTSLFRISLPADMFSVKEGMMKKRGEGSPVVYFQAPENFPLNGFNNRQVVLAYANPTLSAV
ASSAY_OVERVIEW: Inhibition of Marburg virus VP40 PPxY L-domain motif expressed in HEK293T cells assessed as reduction in VLP budding at 1 uM relative to control
Format: cell-based
CONDITIONS_USED: HEK-293T
Active and inactive are the calls of the source. The calls are words filed in the database; no cut-off is given here.
METRIC_NAME: inhibition

Here are 7 molecules together with their reported answers.
Cc1ccc(NC(=O)NC(=O)CSc2nc3ccccc3nc2C)cc1 :: 100%
Cc1nc2ccccc2nc1SCC(=O)NC(=O)Nc1ccccc1F :: 100%
O=C(CSc1nc2ccccc2nc1Cc1ccccc1)NC(=O)Nc1ccc(F)cc1 :: inactive
CCc1nc2ccccc2nc1SCC(=O)NC(=O)Nc1cccc(F)c1C :: 67%
Cc1cccc(NC(=O)NC(=O)CSc2nc3ccccc3nc2C)c1 :: 100%
Cc1nc2ccccc2nc1SCC(=O)NC(=O)NC1CC1 :: inactive
Cc1nc2ccccc2nc1SCC(=O)NC(=O)Nc1c(C)nn(-c2ccccc2)c1C :: inactive

inhibition for Cc1nc2ccccc2nc1SCC(=O)NC(=O)Nc1cc[nH]n1 ? inactive

###

Tested on: Liver microsome
ASSAY_OVERVIEW: Intrinsic clearance in human liver microsomes assessed per mg of protein
Assay type: ADME
METRIC_NAME: Intrinsic clearance (mL/min)
Give the number; mL/min is assumed, so skip it.

Here are 5 compounds together with their reported answers.
Cc1nc2ccccc2nc1SCC(=O)NC(=O)Nc1cccc(F)c1C :: 0.54
Cc1ccc(NC(=O)NC(=O)CSc2nc3ccccc3nc2C)cc1 :: 0.95
Cc1nc2ccccc2nc1SCC(=O)NC(=O)Nc1ccccc1 :: 1.66
O=C(CSc1nc2ccccc2nc1C(F)(F)F)NC(=O)Nc1ccccc1Cl :: 0.77
Cc1nc2ccccc2nc1SCC(=O)NC(=O)Nc1ccccc1Cl :: 0.72

Now examine the next entry.
Intrinsic clearance for Cc1ccc(C)c(NC(=O)NC(=O)CSc2nc3ccccc3nc2C)c1 ? 0.71

###

ASSAY_OVERVIEW: Cytotoxicity against human HEK293T cells assessed as cell viability at 0.1 uM after 24 hrs by MTT assay relative to control
Format: cell-based, HEK-293T
CONDITIONS_USED: read-out: Activity
METRIC_NAME: viability at 24 h, 0.1 µM
Write the numeric value and append its unit.

Here are 3 compounds together with their reported answers.
Cc1ccccc1NC(=O)NC(=O)CSc1nc2ccccc2nc1C :: 71.7%
Cc1nc2ccccc2nc1SCC(=O)NC(=O)Nc1cccc(F)c1C :: 70.4%
Cc1nc2ccccc2nc1SCC(=O)NC(=O)Nc1ccccc1Cl :: 69.3%

viability at 24 h, 0.1 µM for Cc1ccc(NC(=O)NC(=O)CSc2nc3ccccc3nc2C)cc1 ? 81.9%

###

STUDY_SYSTEM: Matrix protein VP40 (Lake Victoria marburgvirus (strain Ravn-87) (MARV) (Marburg virus (strainKenya/Ravn/1987)))
Sequence (whole entry): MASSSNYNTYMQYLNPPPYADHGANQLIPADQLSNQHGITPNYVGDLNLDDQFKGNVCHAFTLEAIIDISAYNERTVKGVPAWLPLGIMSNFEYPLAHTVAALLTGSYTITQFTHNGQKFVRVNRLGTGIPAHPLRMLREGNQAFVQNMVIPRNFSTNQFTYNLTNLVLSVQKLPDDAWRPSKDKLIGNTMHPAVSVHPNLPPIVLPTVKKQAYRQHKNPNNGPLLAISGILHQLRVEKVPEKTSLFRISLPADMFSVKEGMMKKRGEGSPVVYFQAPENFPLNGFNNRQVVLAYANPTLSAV
ASSAY_OVERVIEW: Inhibition of Marburg virus VP40 PPxY L-domain motif expressed in HEK293T cells assessed as reduction in VLP budding at 0.3 uM relative to control
Type: cell-based
CONDITIONS_USED: HEK-293T
METRIC_NAME: inhibition

Cc1cccc(C)c1NC(=O)NC(=O)CSc1nc2ccccc2nc1C :: 100%

inhibition for Cc1ccc(C)c(NC(=O)NC(=O)CSc2nc3ccccc3nc2C)c1 ? 100%

inhibition for COc1cccc(NC(=O)NC(=O)CSc2nc3ccccc3nc2C)c1 ? 98%
